Values compiled from the Human Domainome abundance scans (Beltran et al. 2025).

B1: Transcription intermediary factor 1-beta, residues 620 to 671; numbered along this chain, Q13263 (parent)
chain: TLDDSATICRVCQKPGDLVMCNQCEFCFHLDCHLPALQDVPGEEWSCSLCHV

- Variants of: B1
- assay-overview: abundance fitness (aPCA) (normalised: wild type 0, dead -1); higher = more abundant; growth selection in yeast, the domain comes from the species named
- run-conditions: Homo sapiens
measurement-kind: abundance fitness
Form field (numeric): enter value without unit.

Answered cases to consult:
P35Q | -0.698
L49W | 0.066
C50Q | -0.329

So what does the record say about abundance fitness for `E44L` ? -0.253

// same read-out, input: `V19P` -0.943

Same for `S5K` -0.03
